Biological target: human amylin receptor (hAMYR3) (Homo sapiens, UniProt O60896+P30988)
Construct: host or cells: BHK cells (Hollex-1 line expressing hCTR(a) and CRE-Luc), further transfected with human RAMP3
Sequence (P30988 25-474): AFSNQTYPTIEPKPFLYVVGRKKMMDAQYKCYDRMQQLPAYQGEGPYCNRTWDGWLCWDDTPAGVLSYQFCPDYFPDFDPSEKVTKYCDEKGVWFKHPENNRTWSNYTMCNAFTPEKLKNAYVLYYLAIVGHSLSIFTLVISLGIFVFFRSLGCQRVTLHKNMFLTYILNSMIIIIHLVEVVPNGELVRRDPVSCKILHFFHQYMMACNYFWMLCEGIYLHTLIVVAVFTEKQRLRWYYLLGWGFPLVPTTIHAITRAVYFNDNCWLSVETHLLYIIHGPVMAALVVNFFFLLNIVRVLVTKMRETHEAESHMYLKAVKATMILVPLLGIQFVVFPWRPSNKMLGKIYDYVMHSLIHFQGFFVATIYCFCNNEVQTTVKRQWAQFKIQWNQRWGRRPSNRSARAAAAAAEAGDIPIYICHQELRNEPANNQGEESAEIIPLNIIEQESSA
Sequence (O60896 24-148): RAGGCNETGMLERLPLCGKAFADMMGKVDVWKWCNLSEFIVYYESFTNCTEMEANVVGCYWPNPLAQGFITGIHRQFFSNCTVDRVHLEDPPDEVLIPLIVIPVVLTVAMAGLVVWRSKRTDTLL
Experiment: Amylin receptor assay, method A (CRE-luciferase reporter, BHK cells)
Type: cell-based
Details: hAMYR3 Potency, 1% HSA, EC50, method A, in the presence of 1% HSA
Method: To assess how the activation of the receptors is potentially influenced by the presence of human serum albumin (HSA), the in vitro assays were performed in the absence of HSA and presence of 1% (w/v) HSA. It is thus possible to measure hAMYR3 activity using a CRE-luciferase reporter gene introduced into Baby Hamster Kidney (BHK) cells co-expressing the hAMYR3. […] The plate was incubated over night at 37° C. in 5% CO2. […] Luminescence was detected on a luminescence plate reader e.g., a Synergy 2 (BioTek).
Numbered stars: 1 amine (or outer) side, 2 acyl side, 3 side chain; on linkers, the order of the positions; unused ones are H or OH. Square brackets hold non-standard residues; d marks the D form. Side chains are listed from the residue outwards. * marks the point of attachment. C20 diacid = O=C(O)CCCCCCCCCCCCCCCCCCC(=O)*; C18 diacid = O=C(O)CCCCCCCCCCCCCCCCC(=O)*; C16 diacid = O=C(O)CCCCCCCCCCCCCCC(=O)*; γGlu = O=C(O)[C@H](CCC(=O)[*:2])N[*:1]; AEEA = NCCOCCOCC(=O)O; Aib = CC(C)(N)C(=O)O
Hi! Just check whether EC50 is below 0.1 nM. Below gives rule met, equal or above gives rule not met.

Past entries and their recorded results:
>  <Substance>
Y[Aib]EGTFTSDYSILLEEQAAREFIEWLLAGGPSRGEASHLSTAQTQRLSAELHK([AEEA-AEEA-γGlu-C20 diacid])LATLPRTETGSGSP-NH2 [Compound 94]

>  <Label Class>
rule not met

$$$$
>  <Substance>
Y[Aib]EGTFTSDYSILLEEQAAREFIEWLLAGGPSSGAPPPSGGGEASHLSTAQTQRLSAK([AEEA-AEEA-γGlu-C20 diacid])LHRLATLPRTETGSGSP-NH2 [Compound 110]

>  <Label Class>
rule met

$$$$
>  <Substance>
H[Aib]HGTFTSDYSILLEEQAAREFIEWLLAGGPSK([AEEA-AEEA-γGlu-C18 diacid])GEASHLSTAQTARLSAELHELATLPRTETGSGSP-NH2 [Compound 36]

>  <Label Class>
rule not met

$$$$
>  <Substance>
H[Aib]HGTFTSDYSILLEEQAAREFIEWLLAGGPSSGEASHLSTAQTQRLSAELHK([AEEA-AEEA-γGlu-C18 diacid])LATLPRTETGSGAP-NH2 [Compound 85]

>  <Label Class>
rule not met

$$$$
>  <Substance>
H[Aib]HGTFTSDYSILLEEQAAREFIEWLLAGGPSSGAGQAPGQAPGASHLSTAQTQRLSAK([AEEA-AEEA-γGlu-C18 diacid])LHRLATLPRTETGSGSP-NH2 [Compound 78]

>  <Label Class>
rule met

$$$$

Find out if reported EC50 for H[Aib]HGTFTSDYSILLEEQAAREFIEWLLAGGPSSGEASHLSTAALGRLSAELHRLK([AEEA-AEEA-γGlu-C18 diacid])TLPRTETGSGSP-NH2 [Compound 89] is less than 0.1 nM rule met

Find out if reported EC50 for H[Aib]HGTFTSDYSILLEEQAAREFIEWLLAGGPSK([AEEA-AEEA-γGlu-C16 diacid])GEASQLSTAALGRLSAELHRLADLPRTETGSGSP-NH2 [Compound 62] is less than 0.1 nM rule met

Find out if reported EC50 for Y[Aib]EGTFTSDYSILLEEQAAREFIEWLLAGGPSGGGGEASHLSTAQTQRLSAELHK([AEEA-AEEA-γGlu-C20 diacid])LATLPRTETGSGSP-NH2 [Compound 96] is less than 0.1 nM rule not met

Find out if reported EC50 for Y[Aib]EGTFTSDYSILLEEQAAREFIEWLLAGGPSSGAPPPSGGGEASHLSTAQTQRLSAELHK([AEEA-AEEA-γGlu-C18 diacid])LATLPRTETGSGSP-NH2 [Compound 49] is less than 0.1 nM rule not met

Find out if reported EC50 for Y[Aib]EGTFTSDYSILLEEQAAREFIEWLLAGGPSSGAGQAPGQAPGASHLSTAQTQRLSAK([AEEA-AEEA-γGlu-C18 diacid])LHRLATLPRTETGSGSP-NH2 [compound 55] is less than 0.1 nM rule met

Find out if reported EC50 for H[Aib]HGTFTSDYSILLEEQAAREFIEWLLAGGPSSGEASHLSTAALGRLSAK([AEEA-AEEA-γGlu-C18 diacid])LHRLATLPRTETGSGSP-NH2 [Compound 87] is less than 0.1 nM rule met

Find out if reported EC50 for Y[Aib]EGTFTSDYSILLEEQAAREFIEWLLAGGPSSGEASHLSTAQTQRLSAELHK([AEEA-AEEA-γGlu-C18 diacid])LATLPRTETGSGSP-NH2 [Compound 50] is less than 0.1 nM rule not met

Find out if reported EC50 for H[Aib]HGTFTSDYSILLEEQAAREFIEWLLAGGPSRGAPPPSGGGEASHLSTQTQGRLSAELHK([AEEA-AEEA-γGlu-C18 diacid])LATLPRTETGSGSP-NH2 [Compound 71] is less than 0.1 nM rule not met

Find out if reported EC50 for H[Aib]HGTFTSDYSILLEEQAAREFIEWLLAGGPSSGAGQAPGQAPGASHLSTAQTQRLSAELHRLATLPK([AEEA-AEEA-γGlu-C18 diacid])TETGSGSP-NH2 [Compound 92] is less than 0.1 nM rule met
